Value source: the METLIN SMRT retention time set (Domingo-Almenara et al. 2019)

ASSAY: gradient 5% acetonitrile 3 min, to 50% in 2 min, to 85% in 15 min, held 3 min, 100 µL/min
DETAILS: column: Zorbax Extend-C18 2.1 x 50 mm; eluents: water / acetonitrile, 0.1% formic acid
Criterion: RP-LC retention time meeting or surpassing 700 s. Met: Criterion met. Not met: Criterion not met.

>>> answer_label("Cc1c(C(=O)NC2CCCCC2)sc2ncn(CC(=O)N3CC(C)CC(C)C3)c(=O)c12 (stereo not given)")
"Criterion met"
>>> answer_label("c1cn(-c2cc(N3CCCCC3)ncn2)cn1")
"Criterion not met"
>>> answer_label("CCOC(=O)C1CCN(c2ncnc3c2cnn3-c2cccc(C)c2)CC1")
"Criterion met"
>>> answer_label("COCCCNC(=O)c1cc(-c2ccc(OC)c(OC)c2)nc2n[nH]c(-c3ccc(OC)cc3)c12")
"Criterion met"
>>> answer_label("Cc1nnc(-c2cn(CC(=O)NCCCc3ccccc3)c3ccccc23)o1")
"Criterion met"
>>> answer_label("Cn1c(N2CCCC(C(=O)NCc3cccs3)C2)cc(=O)n(C)c1=O (stereo not given)")
"Criterion not met"
>>> answer_label("Fc1ccc(-c2noc(-c3ccc(N4CCC5(CC4)OCCO5)nc3)n2)cc1")
"Criterion met"
>>> answer_label("Cn1c(=O)c(N2CCC(NC(=O)NCc3ccc(F)cc3)CC2)nc2cccnc21")
"Criterion met"
>>> answer_label("COc1cc(NC(=O)CSc2nccc(N3CCN(c4cc(C)ccc4C)CC3)n2)cc(OC)c1")
"Criterion not met"
>>> answer_label("O=C(c1cccs1)N1CCC2(CC1)NC(=O)N(Cc1ccccc1)C2=O")
"Criterion met"
>>> answer_label("Cc1nnc(-c2ccc3ccn(CC(=O)NCc4cccs4)c3c2)o1")
"Criterion met"
>>> answer_label("Cc1ccc(S(=O)(=O)N2CCC(CCC(=O)N3CCN(C)CC3)CC2)cc1")
"Criterion not met"
>>> answer_label("CCc1cc(C(=O)N2CCN(c3ccccc3)CC2)nc2ccnn12")
"Criterion met"
>>> answer_label("O=C([C@@H]1C[C@H](Oc2ccccc2)CN1C(=O)COc1ccccc1)N1CCCC1")
"Criterion met"
>>> answer_label("O=C(Nc1ccc(OCC(=O)N2CCN(c3ncccn3)CC2)nc1)C1CC1")
"Criterion not met"
>>> answer_label("COc1ccc(C2C(C(=O)N3CCOCC3)c3cc(OC)c(OC)cc3C(=O)N2C)cc1OC (stereo not given)")
"Criterion not met"
>>> answer_label("O=C(CSCc1ccccc1)N1CC(c2nc3ccccc3[nH]2)C1")
"Criterion not met"
